System: SF-539 CNS
protocol: NCI tumour cell line growth inhibition, 48 h
property-label: TGI (µM)
All answers are understood in µM, so give the number only.

IN: Suppose we examine the compound CCCCc1ccc(-n2c(C)c(COC(=O)NC)c(COC(=O)NC)c2C)cc1 ; what TGI value has been reported?
OUT: 15.9

IN: Suppose we examine the compound CC1CSC(=S)N1C(=O)N1C(=S)SCC1C (stereo not given) ; what TGI value has been reported?
OUT: 41.4

IN: Suppose we examine the compound Cc1c(-c2ccccc2)c(C#N)c2nnn(-c3ccc([N+](=O)[O-])cc3)c(=O)n12 ; what TGI value has been reported?
OUT: 27

IN: Suppose we examine the compound COc1cc(-c2nc3ccc(C)cc3[nH]2)ccc1OCC(=O)N=Nc1c(O)[nH]c2ccc(Cl)cc12 ; what TGI value has been reported?
OUT: 3.05

----------
Test system: COLO 205 colon
protocol: NCI tumour cell line growth inhibition, 48 h
property-label: TGI (µM)
All answers are understood in µM, so give the number only.

IN: Suppose we examine the compound CN(C)CCNC(=O)c1ccc(Cl)c2ccc(-c3ccccc3)nc12 ; what TGI value has been reported?
OUT: 4.85

IN: Suppose we examine the compound CC1CSC(=S)N1C(=O)N1C(=S)SCC1C (stereo unspecified) ; what TGI value has been reported?
OUT: 37.2

IN: Suppose we examine the compound NCCOc1ncccc1/C=C1\c2ccccc2-c2ccc(F)cc21 ; what TGI value has been reported?
OUT: 2.31

----------
System: U251 CNS
protocol: NCI tumour cell line growth inhibition, 48 h
Please provide measured TGI for the entries that follow.

IN: Suppose we examine the compound Nc1ncnc2c1ncn2C1OC(CSCc2ccc(Cl)cc2)C(O)C1O (stereo not given) ; what TGI value has been reported?
OUT: > 100 µM

IN: Suppose we examine the compound OC1CCN(c2c3ccccc3nc3ccccc23)CC1 ; what TGI value has been reported?
OUT: 51.1 µM

IN: Suppose we examine the compound CC(=O)C(C)CCOC1(C)OCCC1C (stereo not given) ; what TGI value has been reported?
OUT: > 100 µM

IN: Suppose we examine the compound C/C=C/[C@@H]1[C@H]2C(=O)[C@]3(Cl)[C@@H](/C=C/C)[C@@H]3C(=O)[C@@]12Cl ; what TGI value has been reported?
OUT: > 100 µM

IN: Suppose we examine the compound Cc1[nH]c2nccn2c(=O)c1CCCl ; what TGI value has been reported?
OUT: 43.8 µM

----------
Test system: ACHN renal
protocol: NCI tumour cell line growth inhibition, 48 h
Please provide measured TGI for the entries that follow.

IN: Suppose we examine the compound O=P(O)(O)C(NCC(O)CN1CCOCC1)P(=O)(O)O (stereo not drawn) ; what TGI value has been reported?
OUT: > 100 µM

IN: Suppose we examine the compound CN(C)Cc1cc(/C(=C(\C#N)c2ccccc2)c2ccc(O)cc2)ccc1O ; what TGI value has been reported?
OUT: 32.4 µM

IN: Suppose we examine the compound O=C(O)c1cc2ccccc2c(N=Nc2ccc(S(=O)(=O)O)cc2)c1O ; what TGI value has been reported?
OUT: > 100 µM

IN: Suppose we examine the compound Cc1ccc(Nc2nc3nc[nH]c3c(=O)[nH]2)cc1CO ; what TGI value has been reported?
OUT: 29.4 µM

IN: Suppose we examine the compound Cc1cc(-c2ncc(-c3cccnc3)cc2/C=C/c2ccccc2)cnc1-c1cccnc1 ; what TGI value has been reported?
OUT: > 100 µM

IN: Suppose we examine the compound C[n+]1c(-c2ccccc2)cc2/c(=C\c3ccccc3)c3ccccc3n21 ; what TGI value has been reported?
OUT: 11.8 µM

IN: Suppose we examine the compound CC(C)c1cc(C(=O)N2Cc3ccc(CN4CCN(C)CC4)cc3C2)c(O)cc1O ; what TGI value has been reported?
OUT: > 100 µM

IN: Suppose we examine the compound COc1ccc2c(c1)[n+]([O-])c(-c1c(Cl)cccc1Cl)c(N)[n+]2[O-] ; what TGI value has been reported?
OUT: > 100 µM

IN: Suppose we examine the compound N#CCCN(CCC#N)CCN(CCN(CCC#N)CCC#N)CCN(CCC#N)CCC#N ; what TGI value has been reported?
OUT: > 100 µM

IN: Suppose we examine the compound COc1ccc(/C=C(\C#N)c2nc3ccccc3c(=O)[nH]2)cc1 ; what TGI value has been reported?
OUT: 42.3 µM

IN: Suppose we examine the compound COc1ccc2nc3ccccc3c(NCCN(C)CCCl)c2c1 ; what TGI value has been reported?
OUT: 1.91 µM

IN: Suppose we examine the compound O=C(O)C1[C@@H](C(=O)O)C1(Br)CBr (stereo partly drawn) ; what TGI value has been reported?
OUT: > 100 µM

IN: Suppose we examine the compound CC(C)CCNc1ncnc2[nH]ncc12 ; what TGI value has been reported?
OUT: > 100 µM

IN: Suppose we examine the compound O=C(NNC(=O)c1ccccc1O)c1ccccc1O ; what TGI value has been reported?
OUT: > 100 µM

IN: Suppose we examine the compound C/C(CCn1[nH]c(=O)ccc1=O)=N\N=C(N)N ; what TGI value has been reported?
OUT: > 100 µM

IN: Suppose we examine the compound O=S1CCN(Cc2ccc(-c3ccc4ncnc(Nc5ccc(OCc6cccc(F)c6)c(Cl)c5)c4c3)o2)CC1 ; what TGI value has been reported?
OUT: > 25 µM

IN: Suppose we examine the compound c1ccc(CNCCN2CCNCC2)nc1 ; what TGI value has been reported?
OUT: > 100 µM

IN: Suppose we examine the compound Cc1ccc(NC(=O)OCC(COc2ccc(Cl)cc2)OC(=O)Nc2ccc(C)cc2)cc1 (stereo not drawn) ; what TGI value has been reported?
OUT: > 100 µM

IN: Suppose we examine the compound CCOC(=O)/C=C(\C(=O)OCC)n1ccc(=O)n(Cc2cnnn2COCCOC(C)=O)c1=O ; what TGI value has been reported?
OUT: 10.2 µM

IN: Suppose we examine the compound c1ccc(-c2c(-c3ccccc3)[n+](Cc3ccc4ccccc4c3)c(-c3cccc4ccccc34)n2Cc2ccc3ccccc3c2)cc1 ; what TGI value has been reported?
OUT: 0.743 µM

IN: Suppose we examine the compound C=CN1CCN(c2ccccc2)P1(=O)Oc1ccccc1 (stereo not drawn) ; what TGI value has been reported?
OUT: > 100 µM

IN: Suppose we examine the compound CC(=O)N1CCc2[nH]c3ccccc3c2CC1 ; what TGI value has been reported?
OUT: > 100 µM

IN: Suppose we examine the compound CCN(CC)CCC(=O)NC1c2ccccc2Oc2c(C)cccc21 (stereo not drawn) ; what TGI value has been reported?
OUT: > 100 µM

IN: Suppose we examine the compound COc1ccc(C2CC(c3cc(Cl)c(C)cc3O)=NN2c2ccc(S(N)(=O)=O)cc2)cc1OC (stereo not drawn) ; what TGI value has been reported?
OUT: 12.2 µM

IN: Suppose we examine the compound Nc1ncnc2c1ncn2C1OC(CSCc2ccc(Cl)cc2)C(O)C1O (stereo not drawn) ; what TGI value has been reported?
OUT: > 100 µM

IN: Suppose we examine the compound Oc1ccc(-c2nn3c(CCCCCCCCc4nnc5sc(-c6ccc(O)cc6)nn45)nnc3s2)cc1 ; what TGI value has been reported?
OUT: > 100 µM

IN: Suppose we examine the compound Nc1cc2c([nH]c[n+]2CC#CCCl)c(SCC#CCCl)n1 ; what TGI value has been reported?
OUT: 2.94 µM

IN: Suppose we examine the compound O=C(N/N=C(/COc1ccccc1Cl)N=Cc1cccnc1)c1ccncc1 ; what TGI value has been reported?
OUT: > 100 µM

IN: Suppose we examine the compound CCOC(=O)CCC(C(=O)OCC)n1nnc2ccc(Nc3c(C)[n+]([O-])c4ccc(Cl)cc4[n+]3[O-])cc21 (stereo not drawn) ; what TGI value has been reported?
OUT: > 100 µM

IN: Suppose we examine the compound Cc1cccc2c(C(=O)O[C@H](C(N)=O)[C@]3(C)CO3)cccc12 ; what TGI value has been reported?
OUT: 2.67 µM

IN: Suppose we examine the compound ClCCC[Si]12OCCN(CCO1)CCO2 ; what TGI value has been reported?
OUT: > 100 µM

IN: Suppose we examine the compound COc1cc(-c2nc3ccc(C)cc3[nH]2)ccc1OCC(=O)N=Nc1c(O)[nH]c2ccc(Cl)cc12 ; what TGI value has been reported?
OUT: > 100 µM

IN: Suppose we examine the compound COc1ccc(N2C(=O)C3CC(c4ccc(C)cc4)c4c([nH]c5ccccc45)C3C2=O)cc1 (stereo not drawn) ; what TGI value has been reported?
OUT: > 63.8 µM

IN: Suppose we examine the compound CCCCCCCCc1cc[n+](CC(=O)c2ccc(Br)cc2)cc1 ; what TGI value has been reported?
OUT: 2.99 µM

IN: Suppose we examine the compound CC(=O)C(C)CCOC1(C)OCCC1C (stereo not drawn) ; what TGI value has been reported?
OUT: > 100 µM

IN: Suppose we examine the compound COP(C)(=O)C1=CCN(C(=O)OCC[Si](C)(C)C)CC1 (stereo not drawn) ; what TGI value has been reported?
OUT: > 100 µM

IN: Suppose we examine the compound COc1cc(C(=O)/C=C/c2ccc(OCCCCCC[P+](c3ccccc3)(c3ccccc3)c3ccccc3)cc2)cc(OC)c1OC ; what TGI value has been reported?
OUT: 2.82 µM

IN: Suppose we examine the compound NC1(C(=O)O)CCCC1C(=O)O (stereo not drawn) ; what TGI value has been reported?
OUT: > 100 µM

IN: Suppose we examine the compound O=C(N/S(=N/S(=O)(=O)c1ccc(Br)cc1)C(Cl)(Cl)Cl)c1ccccc1 (stereo not drawn) ; what TGI value has been reported?
OUT: > 100 µM

IN: Suppose we examine the compound CCCCCCCCc1ccc(OCCOCC[N+](C)(C)CC)cc1 (tested in a mixture with another compound) ; what TGI value has been reported?
OUT: 30.4 µM

IN: Suppose we examine the compound CCN=C1Nc2ccccc2-n2c(nn3nc4ccccc4c23)N1CC ; what TGI value has been reported?
OUT: > 100 µM

IN: Suppose we examine the compound COc1ccc(Nc2nccc(Nc3ccc4[nH]ncc4c3)n2)cc1 ; what TGI value has been reported?
OUT: 11.7 µM

IN: Suppose we examine the compound COc1cc2c(cc1OC)C1Cc3sccc3CN1CC2 (stereo not drawn) ; what TGI value has been reported?
OUT: > 100 µM
